tested_on: human NK1 receptor (human) (UniProt P25103)
Sequence (P25103 whole entry): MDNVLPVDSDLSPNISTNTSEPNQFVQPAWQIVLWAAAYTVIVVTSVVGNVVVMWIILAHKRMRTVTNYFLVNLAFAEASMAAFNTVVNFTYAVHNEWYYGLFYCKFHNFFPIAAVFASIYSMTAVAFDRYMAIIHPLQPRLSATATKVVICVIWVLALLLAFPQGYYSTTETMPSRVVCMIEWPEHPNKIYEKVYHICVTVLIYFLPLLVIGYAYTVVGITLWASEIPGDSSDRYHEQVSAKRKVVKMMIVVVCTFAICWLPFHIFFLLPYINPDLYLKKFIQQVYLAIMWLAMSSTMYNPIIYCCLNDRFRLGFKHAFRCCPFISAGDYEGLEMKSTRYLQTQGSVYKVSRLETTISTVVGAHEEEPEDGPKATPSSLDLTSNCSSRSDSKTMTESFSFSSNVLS
assay_name: radioligand competition vs [3H]substance P, membranes of hNK1 CHO cells
Bridge positions count the residues as written; N and C are the ends. Square brackets hold non-standard residues; d marks the D form. Ends that are not written are not given here. * marks the point of attachment. NH(3,5-(CF3)2-benzyl) = FC(F)(F)c1cc(CN*)cc(C(F)(F)F)c1; NH‑Bn(CF3)2 = C-terminal Bn(CF3)2 amide; dPen = CC(C)(S)[C@@H](N)C(=O)O; Pen = CC(C)(S)[C@H](N)C(=O)O; Nle = CCCC[C@H](N)C(=O)O
quantity_name: Ki (nM)
Respond with the bare value in nM.

Completed entries (count: 2):
* Y[dPen]GF[Nle]P[Pen]W-{NH‑Bn(CF3)2} (disulfide 2-7) [Tyr[DPenGlyPheNleProPen]TrpNHBn(CF3)2 (TY047)] | 59
* Y[dPen]GF[Nle]P[dPen]W-{NH‑Bn(CF3)2} (disulfide 2-7) [Tyr[DPenGlyPheNleProDPen]TrpNHBn(CF3)2 (TY048)] | 1.9

Quick note, Ki for Y[dC]GF[Nle]P[dC]W-{NH(3,5-(CF3)2-benzyl)} (disulfide 2-7) [Tyr[DCysGlyPheNleProDCys]TrpNHBn(CF3)2 (TY038)] landed at 0.24
